experiment.description: Ratio of drug level in cerebrospinal fluid to brain in Sprague-Dawley rat at 1 mg/kg, iv after 0.5 hrs
Assay type: ADME, organism-based, CSF/Brain
study.conditions: in vivo
What Ratio was measured for each of the following?
# output: bare number, no unit

**Query** Data request, read-out Ratio, for `COc1ccc(N2C(=O)N(Cc3c(F)cc(F)cc3F)c3ncccc3S2(=O)=O)nc1OC`
**Result** 0.01

**Query** Can you handle `COc1cc(N2C(=O)N(Cc3c(F)cc(F)cc3F)c3ccccc3S2(=O)=O)cnc1OC` next?
**Result** 0.01

**Query** Next: `COc1cc(N2C(=O)N(Cc3c(F)cc(F)cc3Cl)c3ccccc3S2(=O)=O)cnc1OC`
**Result** 0.02

**Query** And then `COc1cc(N2C(=O)N(Cc3c(F)cc(F)cc3F)c3ncccc3S2(=O)=O)cnc1OC` , what is it?
**Result** 0.01
